Test: Cytotoxicity against HEK293 cells after 24 hrs by MTT assay
Assay type: cell-based
Settings: human
Non-standard residues stand in square brackets, D forms with d. Residues, ends and D or L forms follow the SMILES beside them. Groups on a side chain read outwards from the residue. ξ: configuration not given here. ξGly(decyl) = CCCCCCCCCCC(N)C(=O)O
measured_attribute: CC50 at 24 h

>>> value_observed("CCCCCCCCCCC(NC(=O)C(CCCCN)NC(C)=O)C(N)=O (centres undefined)")
"> 15 µM"
>>> value_observed("CCCCCCCCCCC(NC(=O)C(CCCCCCCCCC)NC(=O)C(CCCCNC(=O)C(CCCCN)NC(C)=O)NC(=O)C(CCCCN)NC(C)=O)C(N)=O (centres undefined) (Ac-KK([Lys-Ac])[ξGly(decyl)][ξGly(decyl)]-NH2; configuration not given here)")
"> 15 µM"
>>> value_observed("CCCCCCCCCCC(NC(=O)C(CCCCNC(=O)C(CCCCN)NC(C)=O)NC(=O)C(CCCCN)NC(C)=O)C(N)=O (centres undefined)")
"> 15 µM"
>>> value_observed("CCCCCCCCCCC(NC(=O)C(CCCCCCCCCC)NC(=O)C(CCCCNC(=O)C(N)CCCCN)NC(=O)C(N)CCCCN)C(N)=O (centres undefined) (H-KK(Lys)[ξGly(decyl)][ξGly(decyl)]-NH2; configuration not given here)")
"> 15 µM"
